Attribution: paper PMC10819430

Target Of Assay: HSA (Homo sapiens)
Construct: HSA (≥96%) and six PFAS were all purchased from Aladdin Chemicals (Shanghai, China); purchased Aladdin Chemicals (Shanghai, China)
Sequence (P02768 25-609): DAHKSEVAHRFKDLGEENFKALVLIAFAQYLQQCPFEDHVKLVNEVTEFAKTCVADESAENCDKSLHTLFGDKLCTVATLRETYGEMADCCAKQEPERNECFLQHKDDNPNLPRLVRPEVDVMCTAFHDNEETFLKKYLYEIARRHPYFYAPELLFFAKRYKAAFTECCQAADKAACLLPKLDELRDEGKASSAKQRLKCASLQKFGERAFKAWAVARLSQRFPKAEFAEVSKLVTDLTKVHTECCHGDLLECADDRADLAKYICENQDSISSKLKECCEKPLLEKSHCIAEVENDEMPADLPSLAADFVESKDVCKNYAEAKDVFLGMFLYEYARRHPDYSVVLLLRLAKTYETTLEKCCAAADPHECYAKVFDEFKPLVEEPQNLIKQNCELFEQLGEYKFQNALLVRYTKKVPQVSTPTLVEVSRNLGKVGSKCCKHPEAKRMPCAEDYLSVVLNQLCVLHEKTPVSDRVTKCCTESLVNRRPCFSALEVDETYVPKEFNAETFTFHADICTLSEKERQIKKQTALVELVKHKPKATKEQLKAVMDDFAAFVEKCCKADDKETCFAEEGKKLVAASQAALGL
Experiment Description: Circular dichroism (CD) spectrum, secondary structure of HSA
Assay Setup: HSA:PFAS 1:18, 298 K; HSA alone 16.9
Listed compounds paired with reported HSA secondary structure: β-Turn
Expressed in %, but write only the number.

Below, 3 compounds whose answers are already recorded.
Chemical String	Measured Metric	Result Unit	Measured Number
O=C(O)C(F)(F)C(F)(F)C(F)(F)C(F)(F)C(F)(F)C(F)(F)F	HSA secondary structure: β-Turn	%	15.5
O=C(O)C(F)(F)C(F)(F)C(F)(F)C(F)(F)C(F)(F)C(F)(F)C(F)(F)F	HSA secondary structure: β-Turn	%	15.8
O=C(O)C(F)(F)C(F)(F)C(F)(F)C(F)(F)C(F)(F)C(F)(F)C(F)(F)C(F)(F)F	HSA secondary structure: β-Turn	%	15.1

Now for a further compound.
Which HSA secondary structure: β-Turn value is on record for O=C(O)C(F)(F)C(F)(F)C(F)(F)C(F)(F)C(F)(F)C(F)(F)C(=O)O ? 15.8
